I'd appreciate it if you could supply IC50 values for the items below.
# Tested on: MCF7 cells
# assay name: MCF7 cell activity test (CCK8 proliferation inhibition)
# Assay type: cell-based
# condition set: Homo sapiens, MCF7, 144 h, 6 days incubation

IN: Which IC50 reading was recorded for the compound C[C@@H]1CC(O)(c2cc3c(cc2F)c(N2CCC(=O)NC2=O)nn3C)CCN1C[C@@H]1CCCC[C@H]1CN1CCN(c2ccc([C@@H]3c4ccc(O)cc4CC[C@@H]3c3ccccc3)cc2)CC1 (stereo partly shown) [VI-29] ?
OUT: < 25 nM

IN: Which IC50 reading was recorded for the compound C[C@@H]1CC(c2cc3c(cc2F)c(N2CCC(=O)NC2=O)nn3C)C[C@H](C)N1C[C@@H]1CCCC[C@H]1CN1CCN(c2ccc([C@@H]3c4ccc(O)cc4CC[C@@H]3c3ccccc3)cc2)CC1 (stereo partly shown) [VI-22] ?
OUT: < 50 nM

IN: Which IC50 reading was recorded for the compound O=C1CCC(NC(=O)c2ccc(N3CCN(C[C@@H]4CCCC[C@H]4CN4CCN(c5ccc([C@@H]6c7ccc(O)cc7CC[C@@H]6c6ccccc6)cc5)CC4)CC3)cc2F)C(=O)N1 (stereo partly shown) [Compound I-69] ?
OUT: < 25 nM

IN: Which IC50 reading was recorded for the compound Cc1nn(C2CCC(=O)NC2=O)c2cc(F)c(C3CCN(C[C@@H]4CCCC[C@H]4CN4CCN(c5ccc([C@@H]6c7ccc(O)cc7CC[C@@H]6c6ccccc6)cc5)CC4)CC3)cc12 (stereo partly shown) [VI-9] ?
OUT: < 100 nM

IN: Which IC50 reading was recorded for the compound Cn1nc(N2CCC(=O)NC2=O)c2cc(F)c(C3CCN(C[C@@H]4CCCC[C@H]4CN4CCN(c5ccc([C@@H]6c7ccc(O)cc7CC[C@@H]6c6ccccc6)cc5)CC4)C4(CC4)C3)cc21 (stereo partly shown) [VI-18] ?
OUT: < 25 nM

IN: Which IC50 reading was recorded for the compound Cn1c(=O)n(C2CCC(=O)NC2=O)c2ccc(N3CCN(C[C@@H]4CCCC[C@H]4CN4CCN(c5ccc([C@@H]6c7ccc(O)cc7CC[C@@H]6c6ccccc6)cc5)CC4)CC3)cc21 (stereo partly shown) [VII-2] ?
OUT: < 100 nM

IN: Which IC50 reading was recorded for the compound Cn1nc(N2CCC(=O)NC2=O)c2cc(F)c(N3CCN(C[C@@H]4CCCC[C@H]4CN4CCN(c5ccc([C@@H]6c7ccc(O)cc7CC[C@@H]6c6ccccc6)cc5)CC4)CC3)cc21 [IV-5] ?
OUT: < 25 nM

---

# System: MCF7 cells
# assay name: MCF7 cell activity test (CCK8 proliferation inhibition)
# Format: cell-based
# condition set: Homo sapiens, MCF7, 144 h, 6 days incubation
property: IC50

IN: Which IC50 reading was recorded for the compound Cc1nc2cc(N3CCN(C[C@@H]4CCCC[C@H]4CN4CCN(c5ccc([C@@H]6c7ccc(O)cc7CC[C@@H]6c6ccccc6)cc5)CC4)CC3)ccc2n1C1CCC(=O)NC1=O (some centres unmarked) ?
OUT: < 100 nM

IN: Which IC50 reading was recorded for the compound Cn1nc(N2CCC(=O)NC2=O)c2cc(F)c(C3CCC(N4CCN(C[C@@H]5CCCC[C@H]5CN5CCN(c6ccc([C@@H]7c8ccc(O)cc8CC[C@@H]7c7ccccc7)cc6)CC5)CC4)CC3)cc21 (some centres unmarked) ?
OUT: < 25 nM

IN: Which IC50 reading was recorded for the compound O=C1CCC(n2ncc3cc(N4CCN(C[C@@H]5CCCC[C@H]5CN5CCN(c6ccc([C@@H]7c8ccc(O)cc8CC[C@@H]7c7ccccc7)cc6)CC5)CC4)ccc32)C(=O)N1 (some centres unmarked) ?
OUT: < 100 nM

IN: Which IC50 reading was recorded for the compound Cn1nc(N2CCC(=O)NC2=O)c2cc(F)c(C3CC4CCC(C3)N4C[C@@H]3CCCC[C@H]3CN3CCN(c4ccc([C@@H]5c6ccc(O)cc6CC[C@@H]5c5ccccc5)cc4)CC3)cc21 (some centres unmarked) ?
OUT: < 25 nM

IN: Which IC50 reading was recorded for the compound Cn1nc(C2CCC(=O)NC2=O)c2cc(F)c(C3CCN(C[C@H]4CCCC[C@@H]4CN4CCN(c5ccc([C@@H]6c7ccc(O)cc7CC[C@@H]6c6ccccc6)cc5)CC4)CC3)cc21 (some centres unmarked) ?
OUT: < 50 nM
